Source: patent US20140120095A1

Overview of recorded pEC50 for various binders
- study-system: T1, human DLL4 expressed on cells (CHO-hDLL4; HEK293-hDLL4) (human, UniProt Q9NR61 27-685)
- T1 construct: full length human DLL4 overexpressed on CHO cells (FMAT, FACS) or HEK293 cells (reporter assay)
- procedure-details: FACS; summary table, column taken as hDLL4
The meaning of pEC50 here: minus log10 of the concentration in molar units.

[[record]]
binder = "DLLBII101G08 (VHH, not shown: small tags and cut ends, parent VHH; also called 101G08 (wt); 101G8) VHH: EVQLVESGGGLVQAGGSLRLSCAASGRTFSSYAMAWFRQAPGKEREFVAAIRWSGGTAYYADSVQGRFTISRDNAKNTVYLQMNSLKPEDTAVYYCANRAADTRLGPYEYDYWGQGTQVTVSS"
assay_value = 7.76


Problem: So what does the record say about pEC50 for DLLBII115A05 (VHH, not shown: small tags and cut ends, parent VHH; also called 115A05 (wt); 115A5) VHH: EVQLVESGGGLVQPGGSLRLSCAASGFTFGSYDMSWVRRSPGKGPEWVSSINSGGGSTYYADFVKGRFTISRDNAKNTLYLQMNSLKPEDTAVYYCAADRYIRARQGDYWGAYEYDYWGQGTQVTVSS ?
Solution: 7.95
